experiment summary: Chemical exchange rate (kex) of amide protons from 1H-NMR linewidth
Type: physicochemical
measurement setup: pH 5.5, 310K
metric: Kex (s⁻¹)

1) O=C(NCC(O)CO)c1c(I)c(C(=O)NCC(O)CO)c(I)c(N(CCO)C(=O)CO)c1I (stereo not shown) [Ioversol]	22
2) CN(C(=O)CO)c1c(I)c(C(=O)NCC(O)CO)c(I)c(C(=O)NCC(O)CO)c1I (stereo not shown) [Iomeprol]	30
3) CC(=O)N(CC(O)CO)c1c(I)c(C(=O)NCC(O)CO)c(I)c(C(=O)NCC(O)CO)c1I (stereo not shown) [Iohexol]	22
4) CC(=O)N(CC(O)CN(C(C)=O)c1c(I)c(C(=O)NCC(O)CO)c(I)c(C(=O)NCC(O)CO)c1I)c1c(I)c(C(=O)NCC(O)CO)c(I)c(C(=O)NCC(O)CO)c1I (stereo not shown) [Iodixanol]	32
